Measured values drawn from paper PMC6278385 for this set.

# method: PK in rats after i.v. C118P
# Assay type: in vivo, SD rats
# particulars: both sexes, SD, rat, in vivo, iv; rats, plasma, i.v. C118P 50 mg/kg, n = 6
# Procedure: The SD rats were supplied by the medical animal experiment center of Chinese People’s Liberation Army Nanjing military region. Twenty-four rats (210–300 g) with half males and half females were divided randomly into four groups. C118P was dissolved in saline to achieve different concentrations for intravenous administration. […] Plasma was prepared by centrifugation at 8000 rpm for 5 min, and the plasma samples were then prepared and determined by the method described above. […]
parameter_measured: AUC(0-inf) (ng·h/mL)
Response body: numeric value in ng·h/mL, unit text excluded.

q: Look at this molecule and give its reported AUC(0-inf). COc1cc(OC)cc(-c2nc[nH]c2-c2ccc(OC)c(OP(=O)([O-])[O-])c2)c1.[Na+].[Na+] [C118P]
a: 38900

###

# method: PK in rats after i.v. C118P
# Type: in vivo, SD rats
# particulars: both sexes, SD, rat, iv; rats, plasma, i.v. C118P 20 mg/kg, n = 6
parameter_measured: half-life
Returns: string containing the numeric result and its unit.

q: Look at this compound and give its reported half-life. "COc1cc(OC)cc(-c2nc[nH]c2-c2ccc(OC)c(O)c2)c1"
a: 36 min

###

# method: PK in dogs after i.v. C118P
# Type: in vivo, beagle dogs
# particulars: both sexes, beagle, dog, iv; dogs, plasma, i.v. C118P 3 mg/kg, n = 6
parameter_measured: AUC(0-inf) (ng·h/mL)
Response body: numeric value in ng·h/mL, unit text excluded.

q: Look at this molecule and give its reported AUC(0-inf). "COc1cc(OC)cc(-c2nc[nH]c2-c2ccc(OC)c(O)c2)c1"
a: 910

###

# method: Metabolic stability in liver microsomes
# Type: in vitro ADME, human
# particulars: human liver microsomes, 1.0 mg protein/mL, C118 disappearance
parameter_measured: half-life (min)
Response body: numeric value in min, unit text excluded.

q: Look at this compound and give its reported half-life. "COc1cc(OC)cc(-c2nc[nH]c2-c2ccc(OC)c(O)c2)c1"
a: 11.9

###

# method: Plasma protein binding by ultrafiltration
# Assay type: in vitro ADME
# particulars: human plasma, C118P 400,000 ng/mL; read-out: fu (fraction unbound)
parameter_measured: fraction unbound at 1 h, 400000 ng/mL
A bare number is all that is needed in reply.

q: Look at this compound and give its reported fraction unbound at 1 h, 400000 ng/mL. COc1cc(OC)cc(-c2nc[nH]c2-c2ccc(OC)c(OP(=O)([O-])[O-])c2)c1.[Na+].[Na+] [C118P]
a: 0.057

###

# method: Plasma protein binding by ultrafiltration
# Assay type: in vitro ADME
# particulars: pooled plasma; human plasma, C118 200 ng/mL; read-out: fu (fraction unbound)
parameter_measured: fraction unbound at 1 h, 200 ng/mL
A bare number is all that is needed in reply.

q: Look at this compound and give its reported fraction unbound at 1 h, 200 ng/mL. "COc1cc(OC)cc(-c2nc[nH]c2-c2ccc(OC)c(O)c2)c1"
a: 0.028

###

# method: PK in rats after i.v. C118P
# Format: in vivo, SD rats
# particulars: both sexes, SD, rat, intravenous; rats, plasma, i.v. C118P 20 mg/kg, n = 6; read-out: C2min (C30s for Rat)
parameter_measured: concentration at 30 s
Returns: string containing the numeric result and its unit.

q: Look at this compound and give its reported concentration at 30 s. COc1cc(OC)cc(-c2nc[nH]c2-c2ccc(OC)c(O)c2)c1 [C118]
a: 7720 ng/mL
